B1: glmS ribozyme (parent)
chain: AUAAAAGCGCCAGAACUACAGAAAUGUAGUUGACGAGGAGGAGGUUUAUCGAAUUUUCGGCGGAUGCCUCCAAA

variants of: B1; assay: self-cleavage kobs at 2500 uM GlcN6P; higher = faster cleavage; RNA array; settings: with glucosamine-6-phosphate
Variants at the floor of the assay were thinned out.
Label Criterion met for high-side self-cleavage kobs at 2500 uM GlcN6P (at or above 0.0001 s⁻¹) and Criterion not met for low-side self-cleavage kobs at 2500 uM GlcN6P (below it).

Input: Quick check, self-cleavage kobs at 2500 uM GlcN6P >= 0.0001 s⁻¹? G9U A12U C68U
Output: Criterion not met

Input: Reported self-cleavage kobs at 2500 uM GlcN6P at or above 0.0001 s⁻¹? C8G A15G U30C A42G U45A U46G
Output: Criterion not met

Input: Is the recorded value of self-cleavage kobs at 2500 uM GlcN6P equal to or greater than 0.0001 s⁻¹ for this variant? G43U G44A C50U C61G
Output: Criterion not met

Input: Record G29C G38U U56C ; criterion: self-cleavage kobs at 2500 uM GlcN6P no lower than 0.0001 s⁻¹. Met?
Output: Criterion not met

Input: In plain terms: is recorded self-cleavage kobs at 2500 uM GlcN6P at least 0.0001 s⁻¹ for A14G A15G G35U ?
Output: Criterion not met

Origin of the recorded values: the supplement of paper PMC7125110
